// provenance: patent US20250361230A1

target entity: AKT Kinase-NanoLuc fusion in HEK-293 cells (Homo sapiens)
Construct: host or cells: HEK-293
Sequence (P31749 whole entry, the tested form may be a part): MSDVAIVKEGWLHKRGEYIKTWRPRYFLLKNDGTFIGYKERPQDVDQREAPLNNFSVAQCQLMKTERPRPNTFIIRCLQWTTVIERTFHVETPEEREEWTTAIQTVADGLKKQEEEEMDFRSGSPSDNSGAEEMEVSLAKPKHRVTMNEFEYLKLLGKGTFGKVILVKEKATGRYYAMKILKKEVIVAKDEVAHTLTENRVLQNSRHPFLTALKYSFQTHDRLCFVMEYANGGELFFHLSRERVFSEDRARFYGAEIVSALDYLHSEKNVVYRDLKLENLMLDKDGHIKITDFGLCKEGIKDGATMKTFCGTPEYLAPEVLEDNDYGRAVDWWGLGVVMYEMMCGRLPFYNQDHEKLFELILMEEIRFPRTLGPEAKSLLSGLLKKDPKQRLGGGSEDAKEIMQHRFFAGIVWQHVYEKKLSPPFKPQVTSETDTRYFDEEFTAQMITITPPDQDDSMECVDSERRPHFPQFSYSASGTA
experimental details: NanoBRET target engagement assay in transfected HEK-293 cells, AKT
Format: cell-based
condition: Table 32, NanoBRET, HEK-293 cells; read-out: AKT (Cellular) IC50
result type: IC50

[
  {
    "molecule": "COC(=O)c1c[nH]c2nccc(-c3ccc(C(O)(CN)c4ccc(Cl)cc4)cc3)c12 (centres unmarked)",
    "target entity": "AKT Kinase-NanoLuc fusion in HEK-293 cells (Homo sapiens)",
    "IC50": "0.548 µM"
  }
]

For each of the molecules below, state IC50.
1. NCC(=O)NCC(O)(c1ccc(Cl)cc1)c1ccc(-c2ccnc3[nH]cc(Cl)c23)cc1 (centres unmarked)
2. NCC(O)(c1ccc(Cl)cc1)c1ccc(-c2ccnc3[nH]ccc23)cc1 (centres unmarked)
3. NCC(O)(c1ccc(Cl)cc1)c1ccc(-c2ccnc3[nH]cc(Br)c23)cc1 (centres unmarked)

Result:
0.012 µM
0.042 µM
0.0029 µM

Would you mind listing IC50 for each of the following molecules?
1. NCC(O)(c1ccc(Cl)cc1)c1ccc(-c2ccnc3[nH]cc(-c4cccnc4)c23)cc1 (centres unmarked)
2. NCC(O)(c1ccc(Cl)cc1)c1ccc(-c2ccnc3[nH]cc(F)c23)cc1 (centres unmarked)
3. NCC(O)(c1ccc(Cl)cc1)c1ccc(-c2ccnc3[nH]cc(-c4ccccc4)c23)cc1 (centres unmarked)
4. NCC(O)(c1ccc(Cl)cc1)c1ccc(-c2ccnc3[nH]cc(Br)c23)nc1 (centres unmarked)

Result:
["0.153 µM", "0.027 µM", "0.135 µM", "0.0763 µM"]
